Value source: patent US20240018136A1

# System under test: CDK4/Cyclin D1 (Homo sapiens)
# Experiment: CDK4/CyclinD1 enzymatic activity assay (TR-FRET)
# Measurement context: ATP 2 mM final, read-out: CDK4_D1 IC50
Result type: IC50

See these solved cases before continuing.
[[record]]
molecule = "Cn1cc(S(=O)(=O)N2CCC(Nc3ncc(C(F)(F)F)c(-c4cnc(C5(O)CCCC5)s4)n3)CC2)cn1"
value_reported = "≤ 100 nM"

[[record]]
molecule = "Cc1ncc(-c2nc(NC3CCN(S(C)(=O)=O)CC3)ncc2C(F)(F)F)o1"
value_reported = "> 1000 nM"

[[record]]
molecule = "CC(C)N(C)c1ncc(-c2nc(NC3CCN(S(C)(=O)=O)CC3)ncc2C(F)(F)F)s1"
value_reported = "≤ 100 nM"

[[record]]
molecule = "CC(O)c1ncc(-c2nc(N[C@H]3CCN(S(=O)(=O)c4cnn(C)c4)C[C@@H]3F)ncc2C(F)(F)F)s1 (stereo partly drawn)"
value_reported = "100 to 1000 nM"

[[record]]
molecule = "CCOc1ncc(-c2nc(NC3CCN(S(C)(=O)=O)CC3)ncc2C(F)F)s1"
value_reported = "100 to 1000 nM"


Asked: Value lookup for IC50; key = Cn1cc(S(=O)(=O)N2CCC(Nc3ncc(C(F)(F)F)c(-c4cnc(CC(C)(C)O)s4)n3)CC2)cn1
Given back: ≤ 100 nM

Asked: Same lookup for CS(=O)(=O)N1CCC(Nc2ncc(C(F)(F)F)c(-c3cnc(CN)s3)n2)CC1 , please.
Given back: 100 to 1000 nM

Asked: Same lookup for CN(c1ncc(-c2nc(NC3CCN(S(C)(=O)=O)CC3)ncc2C(F)(F)F)s1)C1CCCC1 , please.
Given back: ≤ 100 nM

Asked: Same lookup for Cc1ncc(-c2nc(N[C@H]3CCN(S(=O)(=O)c4cnn(C)c4)C[C@H]3F)ncc2C(F)(F)F)s1 , please.
Given back: ≤ 100 nM

Asked: Same lookup for CC(O)c1ncc(-c2nc(N[C@H]3CCN(S(=O)(=O)c4cnn(C)c4)C[C@H]3C)ncc2C(F)(F)F)s1 (stereo partly drawn) , please.
Given back: 100 to 1000 nM

Asked: Same lookup for CC(O)c1ncc(-c2nc(N[C@@H]3CCN(S(=O)(=O)c4cnn(C)c4)C[C@H]3F)ncc2C(F)(F)F)s1 (stereo partly drawn) , please.
Given back: ≤ 100 nM

====

Reported values of pIC50 for individual entries
# System under test: CDK4/Cyclin D1 (Homo sapiens)
# Experiment: CDK4/CyclinD1 enzymatic activity assay (TR-FRET)
# Measurement context: ATP 2 mM final, read-out: CDK4_D1 IC50
pIC50: −log10 of the molar value.

[[record]]
molecule = "Cc1ncc(-c2nc(NC3CCN(S(=O)(=O)N(C)C)CC3)ncc2C(F)(F)F)s1 [Example 47]"
system_under_test = "CDK4/Cyclin D1 (Homo sapiens)"
value_reported = "6.00 to 7.00"

[[record]]
molecule = "CNCc1ccc(-c2ncc(-c3nc(NC4CCN(S(C)(=O)=O)CC4)ncc3C(F)(F)F)s2)c(C)c1 [Example 13]"
system_under_test = "CDK4/Cyclin D1 (Homo sapiens)"
value_reported = "≥ 7.00"

[[record]]
molecule = "Cc1ncc(-c2nc(NC3CCN(S(=O)(=O)c4ccn(C)n4)CC3)ncc2C(F)(F)F)s1 [Example 59]"
system_under_test = "CDK4/Cyclin D1 (Homo sapiens)"
value_reported = "≥ 7.00"

[[record]]
molecule = "CN(C)c1ncc(-c2nc(NC3CCN(S(C)(=O)=O)CC3)ncc2C(F)(F)F)s1 [Example 29]"
system_under_test = "CDK4/Cyclin D1 (Homo sapiens)"
value_reported = "≥ 7.00"

[[record]]
molecule = "COC(=O)Nc1ncc(-c2nc(NC3CCN(S(C)(=O)=O)CC3)ncc2C(F)(F)F)s1 [Example 54]"
system_under_test = "CDK4/Cyclin D1 (Homo sapiens)"
value_reported = "6.00 to 7.00"

[[record]]
molecule = "C[C@@H]1CN(S(=O)(=O)c2cn(C)cn2)CC[C@@H]1Nc1ncc(C(F)(F)F)c(-c2cnc(C(C)(C)O)s2)n1 [Example 96]"
system_under_test = "CDK4/Cyclin D1 (Homo sapiens)"
value_reported = "6.00 to 7.00"


Consider the record given below.
Asked: Value lookup for pIC50; key = CC(C)(O)Cc1ncc(-c2nc(NC3CCN(S(=O)(=O)CCCN4CCC(C#N)CC4)CC3)ncc2C(F)(F)F)s1 [Example 78]
Given back: ≥ 7.00

====

# System under test: CDK4/Cyclin D1 (Homo sapiens)
# Experiment: CDK4/CyclinD1 enzymatic activity assay (TR-FRET)
# Measurement context: ATP 2 mM final, read-out: CDK4_D1 IC50
pIC50: −log10 of the molar value.
Result type: pIC50

[[record]]
compound = "CC(C)(O)Cc1ncc(-c2nc(NC3CCN(S(=O)(=O)CCCN4CCOCC4)CC3)ncc2C(F)(F)F)s1"
result_type = "pIC50"
value_reported = "≥ 7.00"


Asked: Value lookup for pIC50; key = COc1ncc(-c2nc(NC3CCN(S(C)(=O)=O)CC3)ncc2C(F)F)s1
Given back: 6.00 to 7.00

Asked: Same lookup for Cc1nn(CCO)cc1-c1ncc(-c2nc(NC3CCN(S(C)(=O)=O)CC3)ncc2C(F)(F)F)s1 , please.
Given back: 6.00 to 7.00

Asked: Same lookup for Cc1nc(C)c(-c2nc(NC3CCN(S(C)(=O)=O)CC3)ncc2F)s1 , please.
Given back: < 6.00

Asked: Same lookup for CCOC(=O)Nc1ncc(-c2nc(NC3CCN(S(C)(=O)=O)CC3)ncc2C(F)(F)F)s1 , please.
Given back: < 6.00

Asked: Same lookup for CC(C)(O)Cc1ncc(-c2nc(NC3CCN(S(=O)(=O)c4cnc5cccnn45)CC3)ncc2C(F)(F)F)s1 , please.
Given back: 6.00 to 7.00

Asked: Same lookup for CS(=O)(=O)N1CCC(Nc2ncc(C(F)(F)F)c(-c3cnc(NC4CC4)s3)n2)CC1 , please.
Given back: ≥ 7.00

Asked: Same lookup for CC(O)c1ncc(-c2nc(NC3CCN(S(=O)(=O)c4cnn(CC(N)=O)c4)CC3)ncc2C(F)(F)F)s1 (stereo not drawn) , please.
Given back: ≥ 7.00

Asked: Same lookup for CN(CCO)c1ncc(-c2nc(NC3CCN(S(C)(=O)=O)CC3)ncc2C(F)(F)F)s1 , please.
Given back: ≥ 7.00

Asked: Same lookup for Cc1ncc(-c2nc(NC3CCN(S(=O)(=O)c4cnn(C)c4)CC3)ncc2C(F)(F)F)s1 , please.
Given back: ≥ 7.00

Asked: Same lookup for CS(=O)(=O)N1CCC(Nc2ncc(C(F)(F)F)c(-c3cnc(NCCO)s3)n2)CC1 , please.
Given back: ≥ 7.00

Asked: Same lookup for Cc1ncc(-c2nc(NC3CCN(S(=O)(=O)CCO)CC3)ncc2C(F)(F)F)s1 , please.
Given back: ≥ 7.00

====

# System under test: CDK4/Cyclin D1 (Homo sapiens)
# Experiment: CDK4/CyclinD1 enzymatic activity assay (TR-FRET)
# Measurement context: ATP 2 mM final, read-out: CDK4_D1 IC50
pIC50: −log10 of the molar value.
Result type: pIC50

Asked: Value lookup for pIC50; key = Cn1cc(S(=O)(=O)N2CCC(Nc3ncc(C(F)(F)F)c(-c4cnc(C(O)C(F)(F)F)s4)n3)CC2)cn1 (stereo not shown)
Given back: ≥ 7.00

====

# System under test: CDK4/Cyclin D1 (Homo sapiens, UniProt P11802)
# Construct: purchased ProQinase; host or cells: insect cell
# Sequence (P11802 whole entry): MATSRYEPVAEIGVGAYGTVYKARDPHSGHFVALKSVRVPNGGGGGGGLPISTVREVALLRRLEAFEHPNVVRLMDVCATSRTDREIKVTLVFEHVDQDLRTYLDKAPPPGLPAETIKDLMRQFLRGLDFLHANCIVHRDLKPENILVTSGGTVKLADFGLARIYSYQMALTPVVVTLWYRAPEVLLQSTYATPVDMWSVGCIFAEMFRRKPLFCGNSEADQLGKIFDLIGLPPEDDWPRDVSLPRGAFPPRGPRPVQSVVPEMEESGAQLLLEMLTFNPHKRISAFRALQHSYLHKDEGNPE
# Sequence (P24385 whole entry partner): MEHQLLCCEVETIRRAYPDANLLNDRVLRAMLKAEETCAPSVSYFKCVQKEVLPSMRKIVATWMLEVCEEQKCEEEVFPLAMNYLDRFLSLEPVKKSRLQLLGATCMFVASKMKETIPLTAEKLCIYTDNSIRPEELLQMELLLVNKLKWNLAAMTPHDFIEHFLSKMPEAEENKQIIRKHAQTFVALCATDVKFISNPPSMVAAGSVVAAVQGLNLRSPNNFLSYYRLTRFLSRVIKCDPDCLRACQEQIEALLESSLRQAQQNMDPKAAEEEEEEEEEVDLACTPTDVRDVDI
# Experiment: CDK4/CyclinD1 enzymatic activity assay (TR-FRET)
# Assay type: biochemical
# Measurement context: ATP 2 mM final, read-out: CDK4_D1 IC50
Reported values of IC50 for individual entries

See these solved cases before continuing.
[[record]]
molecule = "CN(C)c1ncc(-c2nc(NC3CCN(S(C)(=O)=O)CC3)ncc2C(F)F)s1"
system_under_test = "CDK4/Cyclin D1 (Homo sapiens, UniProt P11802)"
value_reported = "100 to 1000 nM"

[[record]]
molecule = "Cn1cc(S(=O)(=O)N2CCC(Nc3ncc(C(F)(F)F)c(-c4cnc(C(O)C5CC5)s4)n3)CC2)cn1 (stereo not drawn)"
system_under_test = "CDK4/Cyclin D1 (Homo sapiens, UniProt P11802)"
value_reported = "≤ 100 nM"

[[record]]
molecule = "C[C@@H]1CN(S(=O)(=O)c2cnn(C)c2)CC[C@@H]1Nc1ncc(C(F)(F)F)c(-c2cnc(CC(C)(C)O)s2)n1"
system_under_test = "CDK4/Cyclin D1 (Homo sapiens, UniProt P11802)"
value_reported = "100 to 1000 nM"

[[record]]
molecule = "Cc1ncc(-c2nc(N[C@@H]3CCN(S(=O)(=O)c4cnn(C)c4)C[C@H]3F)ncc2C(F)(F)F)s1"
system_under_test = "CDK4/Cyclin D1 (Homo sapiens, UniProt P11802)"
value_reported = "≤ 100 nM"


Asked: Value lookup for IC50; key = CC(C)Oc1ncc(-c2nc(NC3CCN(S(C)(=O)=O)CC3)ncc2C(F)(F)F)s1
Given back: ≤ 100 nM

Asked: Same lookup for Cn1cnc(S(=O)(=O)N2CCC(Nc3ncc(C(F)(F)F)c(-c4cnc(CC(C)(C)O)s4)n3)CC2)c1 , please.
Given back: ≤ 100 nM

Asked: Same lookup for CCOc1ncc(-c2nc(NC3CCN(S(C)(=O)=O)CC3)ncc2C(F)(F)F)s1 , please.
Given back: ≤ 100 nM

Asked: Same lookup for Cc1nc(CO)ccc1-c1ncc(-c2nc(NC3CCN(S(C)(=O)=O)CC3)ncc2C(F)(F)F)s1 , please.
Given back: ≤ 100 nM

Asked: Same lookup for CN1CCN(CCCS(=O)(=O)N2CCC(Nc3ncc(C(F)(F)F)c(-c4cnc(CC(C)(C)O)s4)n3)CC2)CC1 , please.
Given back: ≤ 100 nM
